Assignment: determine reported TI (therapeutic index) for the given compounds.
- Test system: Kunming mice
- experimental_details: Determination of therapeutic index (ED50 and LD50, up-and-down method)
- Assay type: in vivo, mouse
- conditions: half male and half female
Just the number, please.

IN: What does the data say about its TI (therapeutic index)? Entry: CC(C)c1cccc(C(C)C)c1OC(=O)COC(=O)CN1CCN(C)CC1
OUT: 3.9

IN: Same thing, different compound: CC(C)c1cccc(C(C)C)c1OC(=O)COC(=O)CN1CCOCC1 [Compound 23]
OUT: 4.4

IN: Then CC(C)c1cccc(C(C)C)c1OC(=O)COC(=O)CN1CCCC1.Cl ?
OUT: 3.7

IN: Another compound to check: CC(C)c1cccc(C(C)C)c1OCOP(=O)(O)O [Fospropofol, fospropofol, reference compound]
OUT: 2.9

IN: // repeat for CC(C)c1cccc(C(C)C)c1OC(=O)COC(=O)CN1CCOCC1 [Compound 22] and report
OUT: 4.7

IN: Also, CC(C)c1cccc(C(C)C)c1OC(=O)COC(=O)[C@@H](C)N(C)C.Cl please.
OUT: 3.8
